Target: bFGF (basic fibroblast growth factor) (UniProt P09038 P09038:143-288)
Sequence (P09038 143-288, one chain of several): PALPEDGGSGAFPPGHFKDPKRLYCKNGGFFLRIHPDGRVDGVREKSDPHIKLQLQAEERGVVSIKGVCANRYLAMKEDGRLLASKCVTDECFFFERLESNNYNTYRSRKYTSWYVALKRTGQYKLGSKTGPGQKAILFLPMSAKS
Assay: binding affinity stated as 1 nM
Conditions: blunt-ended hairpin, Tm 68 C
QUANTITY_KIND: Kd (nM)
Expressed in nM, but write only the number.

Item: GCGGGGCTACGTACCGGGGCTTTGTAAAACCCCGC (ssDNA) [225T3] | Kd: 1
